This listing pairs molecules with measured PI+ cells.
# Tested on: Hs27 cells
# protocol-summary: Propidium iodide (PI) staining cytotoxicity in Hs27 cells by flow cytometry
# Format: cell-based
# particulars: 10 µM, 24 h post-treatment, untreated control subtracted
quantity-name: PI+ cells

{"structure-notation": "COc1ccc(O)cc1/C=C/C(=O)c1c(O)cccc1OCc1ccccc1", "quantity-name": "PI+ cells", "result": "40–60%"}
{"structure-notation": "COc1ccc(Br)cc1/C=C/C(=O)c1c(O)cccc1OCCC(C)C", "quantity-name": "PI+ cells", "result": "40–60%"}
{"structure-notation": "CCOc1ccc(Cl)cc1/C=C/C(=O)c1c(O)cccc1OCc1ccccc1", "quantity-name": "PI+ cells", "result": "< 10%"}
{"structure-notation": "COc1cc(/C=C/C(=O)c2c(O)cccc2OCc2ccccc2)cc(OC)c1OC", "quantity-name": "PI+ cells", "result": "40–60%"}
{"structure-notation": "COc1ccc(Br)cc1/C=C/C(=O)c1c(O)cccc1OCc1ccc(-c2ccccc2)cc1", "quantity-name": "PI+ cells", "result": "~ 11%"}
